Taken from patent US12433836B2.

# test-method-notes: Pharmacokinetics after single IV bolus dose in mice
# measurement-conditions: female, CD-1, mouse, in vivo, iv
measurement-label: half-life (h)
Quick reminder: number only, in h, skip the unit.

Please give the measured half-life for this molecule: C[C@H](Nc1cc(Cl)nc2c1cnn2[C@@H]1O[C@H](COP(=O)(O)CP(=O)(O)O)[C@@H](O)[C@H]1O)c1ccc(F)cc1 [Compound 2]
6.5

---

# test-method-notes: Pharmacokinetics after single IV bolus dose in mice
# measurement-conditions: female, CD-1, mouse, plasma, iv
measurement-label: Vd

Please give the measured Vd for this compound: C[C@H](Nc1cc(Cl)nc2c1cnn2[C@@H]1O[C@H](COP(=O)(O)CP(=O)(O)O)[C@@H](O)[C@H]1O)c1ccccc1F
0.12 L/kg
